Test: Pharmacokinetics in Sprague Dawley rats
Assay type: in vivo
Details: Sprague Dawley, rat, plasma, po, 2 mg/kg

{"columns": ["molecule", "AUC [µM·h]"],
 "data": [
  ["CCOc1ccc(-c2nc(-c3cccc4c3CCC4NCCO)no2)cc1OCC (stereo not shown) [CYM-5442]", 0.23]
]}

---

Test: Pharmacokinetics in Sprague Dawley rats
Type: in vivo
Conditions: Sprague Dawley, rat, plasma, iv, 1 mg/kg
observedProperty: clearance

{"columns": ["compound", "observedProperty", "readoutValue"],
 "data": [
  ["CCOc1ccc(-c2nc(-c3cccc4c3CCC4NCCO)no2)cc1OCC (stereo not shown)", "clearance", "72.9 mL/min/kg"]
]}
